Hey, just so you know, these numbers are from paper PMC6150237.

Measured Ka values are reported for all entries that follow.
system: rat small intestine (duodenum, jejunum, ileum); test: In situ single-pass intestinal perfusion (SPIP), saponins administrated in MDQ-TS form; assay type: in vivo; details: MDQ-TS form 2.5 mg·mL^−1, ileum, n = 5

Some solved cases for reference:
C[C@H]1CC[C@]2(C(=O)O)CC[C@]3(C)C(=CC[C@@H]4[C@@]5(C)CC[C@H](O[C@@H]6OC[C@@H](O)[C@H](O)[C@H]6O[C@@H]6O[C@H](CO)[C@@H](O)[C@H](O)[C@H]6O)C(C)(C)[C@@H]5CC[C@]43C)[C@@H]2[C@]1(C)O [C3, ilexsaponin B1]; 3.77 ± 0.41 ×10^−2 min^−1
C[C@@H]1O[C@@H](O[C@H]2[C@H](O[C@H]3[C@H](O[C@H]4CC[C@]5(C)[C@H]6CC=C7[C@H]8[C@](C(=O)O[C@@H]9O[C@H](CO)[C@@H](O)[C@H](O)[C@H]9O)(CC[C@H](C)[C@@]8(C)O)CC[C@@]7(C)[C@]6(C)CC[C@H]5C4(C)C)OC[C@@H](O)[C@@H]3O)O[C@H](CO)[C@@H](O)[C@@H]2O)[C@H](O)[C@H](O)[C@H]1O [DC2, ilexoside O]; 1.54 ± 0.85 ×10^−2 min^−1
CC1CCC2(C(=O)OC3OC(CO)C(O)C(O)C3O)CCC3(C)C(=CCC4C5(C)CCC(O)C(C)(C(=O)O)C5CCC43C)C2C1(C)O (centres unmarked) [C2, ilexsaponin A1]; 1.89 ± 0.35 ×10^−2 min^−1
C[C@@H]1O[C@@H](O[C@H]2[C@H](O[C@H]3[C@H](O[C@H]4CC[C@]5(C)[C@H]6CC=C7[C@H]8[C@](C(=O)O)(CC[C@H](C)[C@@]8(C)O)CC[C@@]7(C)[C@]6(C)CC[C@H]5C4(C)C)OC[C@@H](O)[C@@H]3O)O[C@H](CO)[C@@H](O)[C@@H]2O)[C@H](O)[C@H](O)[C@H]1O [C4, ilexsaponin B2]; 2.53 ± 0.29 ×10^−2 min^−1

Next up:
Give Ka only, for C[C@@H]1CC[C@]2(C(=O)O)CC[C@]3(C)C(=CC[C@@H]4[C@@]5(C)CC[C@H](O)[C@@](C)(C(=O)O)[C@@H]5CC[C@]43C)[C@@H]2[C@]1(C)O [C1, ilexgenin A] , using rat small intestine (duodenum, jejunum, ileum) data. 2.90 ± 0.37 ×10^−2 min^−1

###

tested on: rat small intestine (duodenum, jejunum, ileum); test: In situ single-pass intestinal perfusion (SPIP), saponins administrated in MDQ-TS form; assay type: in vivo; details: MDQ-TS form 5.0 mg·mL^−1, jejunum, n = 5
Measured Ka values are reported for all entries that follow.

Some solved cases for reference:
CC1CCC2(C(=O)OC3OC(CO)C(O)C(O)C3O)CCC3(C)C(=CCC4C5(C)CCC(O)C(C)(C(=O)O)C5CCC43C)C2C1(C)O (centres unmarked); 1.21 ± 0.51 ×10^−2 min^−1
C[C@@H]1O[C@@H](O[C@H]2[C@H](O[C@H]3[C@H](O[C@H]4CC[C@]5(C)[C@H]6CC=C7[C@H]8[C@](C(=O)O[C@@H]9O[C@H](CO)[C@@H](O)[C@H](O)[C@H]9O)(CC[C@H](C)[C@@]8(C)O)CC[C@@]7(C)[C@]6(C)CC[C@H]5C4(C)C)OC[C@@H](O)[C@@H]3O)O[C@H](CO)[C@@H](O)[C@@H]2O)[C@H](O)[C@H](O)[C@H]1O [DC2, ilexoside O]; 1.73 ± 0.66 ×10^−2 min^−1
C[C@H]1CC[C@]2(C(=O)O)CC[C@]3(C)C(=CC[C@@H]4[C@@]5(C)CC[C@H](O[C@@H]6OC[C@@H](O)[C@H](O)[C@H]6O[C@@H]6O[C@H](CO)[C@@H](O)[C@H](O)[C@H]6O)C(C)(C)[C@@H]5CC[C@]43C)[C@@H]2[C@]1(C)O; 2.48 ± 0.86 ×10^−2 min^−1

Report Ka for C[C@@H]1O[C@@H](O[C@H]2[C@H](O[C@H]3[C@H](O[C@H]4CC[C@]5(C)[C@H]6CC=C7[C@H]8[C@](C(=O)O)(CC[C@H](C)[C@@]8(C)O)CC[C@@]7(C)[C@]6(C)CC[C@H]5C4(C)C)OC[C@@H](O)[C@@H]3O)O[C@H](CO)[C@@H](O)[C@@H]2O)[C@H](O)[C@H](O)[C@H]1O 1.92 ± 0.61 ×10^−2 min^−1

Report Ka for C[C@@H]1CC[C@]2(C(=O)O)CC[C@]3(C)C(=CC[C@@H]4[C@@]5(C)CC[C@H](O)[C@@](C)(C(=O)O)[C@@H]5CC[C@]43C)[C@@H]2[C@]1(C)O 2.30 ± 1.24 ×10^−2 min^−1
